- test.system: UniProt Q9JKC1
- Sequence (Q9JKC1 whole entry): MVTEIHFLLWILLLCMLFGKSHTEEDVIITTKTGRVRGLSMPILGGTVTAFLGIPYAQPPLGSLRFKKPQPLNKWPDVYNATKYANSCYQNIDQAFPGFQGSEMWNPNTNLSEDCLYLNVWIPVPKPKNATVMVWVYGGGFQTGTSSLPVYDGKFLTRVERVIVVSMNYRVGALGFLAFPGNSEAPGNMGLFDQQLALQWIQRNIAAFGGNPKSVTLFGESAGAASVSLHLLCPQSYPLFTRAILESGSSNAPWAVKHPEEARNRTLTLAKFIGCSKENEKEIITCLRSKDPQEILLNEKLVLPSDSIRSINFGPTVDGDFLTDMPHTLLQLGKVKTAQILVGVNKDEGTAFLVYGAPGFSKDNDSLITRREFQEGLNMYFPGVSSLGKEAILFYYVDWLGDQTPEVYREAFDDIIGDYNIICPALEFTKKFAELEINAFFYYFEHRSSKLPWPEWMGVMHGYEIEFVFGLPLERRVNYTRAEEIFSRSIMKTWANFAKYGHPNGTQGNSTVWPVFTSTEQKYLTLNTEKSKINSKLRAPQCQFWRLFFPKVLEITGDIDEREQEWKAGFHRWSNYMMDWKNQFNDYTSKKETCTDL
property: IC50 (nM)
Please respond with the number in nM and leave the unit unwritten.

Reported IC50 for UniProt Q9JKC1, given c1ccc2c(c1)NC1CCCCC1=C2NCCCCCCCCNC1CCNC2CCCCC21 (stereo unspecified) ?
110

###

compounds and their reported Ki
- test.system: Cholinesterase (Equus caballus)
- Sequence (P81908 whole entry): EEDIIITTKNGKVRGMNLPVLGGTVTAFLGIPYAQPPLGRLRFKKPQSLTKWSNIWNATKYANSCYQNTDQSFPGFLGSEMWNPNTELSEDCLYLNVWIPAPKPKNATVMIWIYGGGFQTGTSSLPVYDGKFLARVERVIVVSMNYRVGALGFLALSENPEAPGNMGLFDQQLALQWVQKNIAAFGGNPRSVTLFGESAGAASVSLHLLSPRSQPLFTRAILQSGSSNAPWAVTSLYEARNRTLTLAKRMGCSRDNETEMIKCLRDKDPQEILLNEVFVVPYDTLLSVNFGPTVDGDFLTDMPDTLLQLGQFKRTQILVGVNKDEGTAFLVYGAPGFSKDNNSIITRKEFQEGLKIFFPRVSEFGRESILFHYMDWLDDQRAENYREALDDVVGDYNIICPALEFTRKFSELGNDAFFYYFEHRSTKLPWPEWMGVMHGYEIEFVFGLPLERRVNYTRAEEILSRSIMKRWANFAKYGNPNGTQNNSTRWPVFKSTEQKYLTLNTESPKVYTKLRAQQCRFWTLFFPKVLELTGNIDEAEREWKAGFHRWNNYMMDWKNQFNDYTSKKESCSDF
Please give a number only; it is taken to be in nM.

>>> reading("CN(CCCNc1c2c(nc3ccccc13)CCCC2)CCCSc1c2c(nc3ccccc13)CCCC2")
4.2

Which Ki value belongs to c1ccc2c(NCCCCCCCNc3c4c(nc5ccccc35)CCCC4)c3c(nc2c1)CCCC3 ?
2

###

Kd data for UniProt:P21836 follow.
Field format: number, assumed µM, no unit text.

>>> reading("C[N+](C)(C)CCCCCCCCCC[n+]1c(-c2ccccc2)cc(N)c2ccc3ccc(N)cc3c21")
79

--- query ---
Could you share which Kd value was measured for CC[N+](CC)(CCNC(=O)C(=O)NCC[N+](CC)(CC)Cc1ccccc1Cl)Cc1ccccc1Cl [AMBENONIUM] ?
54

###

- test.system: Acetylcholinesterase (Torpedo californica, UniProt P04058)
- Sequence (P04058 whole entry): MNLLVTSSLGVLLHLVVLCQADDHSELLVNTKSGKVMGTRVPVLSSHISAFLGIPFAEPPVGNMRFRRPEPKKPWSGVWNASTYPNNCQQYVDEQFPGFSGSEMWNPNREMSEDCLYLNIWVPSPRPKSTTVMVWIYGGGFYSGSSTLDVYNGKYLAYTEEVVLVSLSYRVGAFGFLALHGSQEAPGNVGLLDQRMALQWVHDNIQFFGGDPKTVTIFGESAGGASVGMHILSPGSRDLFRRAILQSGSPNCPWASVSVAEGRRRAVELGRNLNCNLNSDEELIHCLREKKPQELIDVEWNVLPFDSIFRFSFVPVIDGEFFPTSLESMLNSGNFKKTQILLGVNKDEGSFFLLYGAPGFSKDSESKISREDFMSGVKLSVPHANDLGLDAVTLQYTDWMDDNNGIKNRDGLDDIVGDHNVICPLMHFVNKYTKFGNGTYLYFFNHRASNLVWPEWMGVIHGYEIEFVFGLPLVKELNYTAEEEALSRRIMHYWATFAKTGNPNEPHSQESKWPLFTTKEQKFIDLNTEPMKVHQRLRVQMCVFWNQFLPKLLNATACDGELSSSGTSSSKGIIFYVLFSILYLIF
property: pIC50
pIC50 is a log-scale quantity: -log10 of the concentration expressed in molar.

Requested read-out: pIC50. Entry: CCc1ccccc1NC(=O)Oc1ccc2c(c1)[C@]1(C)CCN(C)O[C@@H]1N2C [GANSTIGMINE]
5.29

###

Acetylcholinesterase (Mus musculus): recorded pKd for assorted molecules
Sequence (P21836 whole entry): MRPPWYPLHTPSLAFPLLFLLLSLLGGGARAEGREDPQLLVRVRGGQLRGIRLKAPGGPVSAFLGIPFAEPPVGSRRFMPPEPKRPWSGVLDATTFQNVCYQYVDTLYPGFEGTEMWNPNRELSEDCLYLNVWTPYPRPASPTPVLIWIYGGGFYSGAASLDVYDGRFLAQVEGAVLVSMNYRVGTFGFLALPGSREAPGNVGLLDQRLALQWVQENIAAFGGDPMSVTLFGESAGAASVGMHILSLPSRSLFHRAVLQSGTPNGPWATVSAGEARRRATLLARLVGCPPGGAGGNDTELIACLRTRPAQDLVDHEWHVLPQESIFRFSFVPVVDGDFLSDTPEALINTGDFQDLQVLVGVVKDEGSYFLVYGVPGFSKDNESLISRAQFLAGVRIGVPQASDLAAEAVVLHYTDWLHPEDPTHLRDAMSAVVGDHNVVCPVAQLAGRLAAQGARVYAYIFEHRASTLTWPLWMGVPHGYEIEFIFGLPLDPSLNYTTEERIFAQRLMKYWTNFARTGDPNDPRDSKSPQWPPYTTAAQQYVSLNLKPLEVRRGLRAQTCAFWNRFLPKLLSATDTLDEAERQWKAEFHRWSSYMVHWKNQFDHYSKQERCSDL
# pKd: negative log10 of molar concentration; output just the value

>>> reading("C[N+](C)(C)CCCCCCCCCC[n+]1c(-c2ccccc2)cc(N)c2ccc3ccc(N)cc3c21")
3.80

Pending molecule:
# lookup: pKd of CC[N+](CC)(CCNC(=O)C(=O)NCC[N+](CC)(CC)Cc1ccccc1Cl)Cc1ccccc1Cl
4.34

###

- test.system: UniProt:P37136
- Sequence (P37136 whole entry): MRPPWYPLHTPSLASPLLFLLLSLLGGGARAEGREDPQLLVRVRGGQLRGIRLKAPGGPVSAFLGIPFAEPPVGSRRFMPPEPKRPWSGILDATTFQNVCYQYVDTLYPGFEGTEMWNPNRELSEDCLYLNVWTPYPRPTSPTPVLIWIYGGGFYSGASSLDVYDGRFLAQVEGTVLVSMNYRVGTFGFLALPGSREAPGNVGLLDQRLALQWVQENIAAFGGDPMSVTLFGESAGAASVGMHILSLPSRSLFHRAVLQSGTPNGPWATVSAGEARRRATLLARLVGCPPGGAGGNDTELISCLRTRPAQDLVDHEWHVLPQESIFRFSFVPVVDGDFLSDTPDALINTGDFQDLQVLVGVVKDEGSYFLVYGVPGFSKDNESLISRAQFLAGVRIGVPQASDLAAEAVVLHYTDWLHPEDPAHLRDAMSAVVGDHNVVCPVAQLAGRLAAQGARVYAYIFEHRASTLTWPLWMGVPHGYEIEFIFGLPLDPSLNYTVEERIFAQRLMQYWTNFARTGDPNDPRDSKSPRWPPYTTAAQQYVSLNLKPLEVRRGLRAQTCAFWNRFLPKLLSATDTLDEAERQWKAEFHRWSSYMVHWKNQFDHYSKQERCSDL
property: IC50 (nM)
Lab book: enter the figure in nM, no units written.

>>> reading("c1ccc2c(c1)NC1CCCCC1=C2NCCCCCCCCNC1CCNC2CCCCC21 (configuration not stated)")
8.8

Requested read-out: IC50. Entry: NCCCCCCCCNc1c2c(nc3ccccc13)CCCC2
1.5
